# MEASUREMENT_NOTES: amyloid nucleation score (Sup35N fusion, yeast selection) (log enrichment); library NNK2; higher = more nucleation; inactive = no reads after selection;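 note: zero at mode of non-aggregating sequences after 7 days selection at 30°C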
TEST_READOUT: amyloid nucleation score

Endpoint output: amyloid nucleation score of CYVVAREKSLIETGNFGKYG . Value?
-0.653

Follow-up item: VVSTESVNVI
0.889

Try this substance too: DFNLWPLC
-0.373

Param item: CLDLLWHSWASYLLAGALWW
0.94

# repeat for YFNFDL
-0.313

Further cases:
Would you kindly share the measured amyloid nucleation score for SAVSPVSVADR ?
-0.656

Similarly, NMPFYRFAKRTWFRNPQSFV ?
-1.19

Now consider ACFNLEKIVINYFWFS and answer again.
7

Query LVKLEKHRLKVVNDYNSFEG next
inactive

Entry to check: AMPSRDLITR
2.52

What about RNYRLRMDGDCGLFFCCGD ?
9.35

Another substance to look at: SVAWVLLWV
0.636

Again, but for SLTLHLSEWGAISPN
-0.347

And TVTRLSYGMFHQRNRVC ?
-0.267

// same read-out, input: CDHQRLMTYLVPAGYMPDTM
-0.201

Consider next the substance RSCSWLLIYRIVILVG in the same way.
inactive

Follow-up entry: PHKSAGGRLSMFGAKHGDMV
0.822

Same again, this time with HVWGQLSCFARVALSDRSKM
3.07

---

# MEASUREMENT_NOTES: amyloid nucleation score (Sup35N fusion, yeast selection) (log enrichment); library NNK2; higher = more nucleation; inactive = no reads after selection
amyloid nucleation score below 0.8 gives n; amyloid nucleation score at or above it gives y.

Answer whether amyloid nucleation score of AFIRPIVSLVVLSQGV is greater than or equal to 0.8.
y

And the next one, KVRDCDIMAPNIMVRSLNRS ?
y

Similarly, DLSRLCVGHAVI ?
n

What about this substance? GYLGMWVKTCCQWTGERSDM
y

Entry to check: SNYGCDQWWNITWFE
n

Next substance, please.
Check the entry TSHSCGYLWCSLV : does amyloid nucleation score equal or exceed 0.8?
n

---

# MEASUREMENT_NOTES: amyloid nucleation score (Sup35N fusion, yeast selection) (log enrichment); library NNK2; higher = more nucleation; inactive = no reads after selection
Classification by amyloid nucleation score follows these ranges: class 1 (below 0.08), class 2 (0.08 to below 1), class 3 (1 or more)

Completed entries (count: 8):
# bin lookup: classify QYVPVLGPACMQLMRYNCAD by its amyloid nucleation score
class 1

Moving on to the next substance: VERVPGCTRTRTFWLNSSDW
class 2

// next record DCSNDRKIYYNWAIRVVRTD
class 1

Query EVYYTSMERCGG next
class 3

And for TRRARSDSDLMCRDRVSVDN ?
class 1

Request: AILYDHSYSYWVSFRNVKCK
class 2

Also check VVSILRLDSVGRVVIEAWVR
class 2

Moving on to the next substance: WLYALWCDWSA
class 3

Further cases:
Please indicate the class for TYGVLVNIGGWIDTFGWKLK based on its amyloid nucleation score.
class 3

Repeat with AVLLNA
class 2

---

# MEASUREMENT_NOTES: amyloid nucleation score (Sup35N fusion, yeast selection) (log enrichment); library NNK2; higher = more nucleation; inactive = no reads after selection
Entries and their amyloid nucleation score
Answer using only a numeral; do not append any unit.

Example sequences with recorded amyloid nucleation score:
Which amyloid nucleation score value belongs to RCYVFKLSFGDTQCELFRIT ?
6.41

# iterate: NTNASDWRGAMLLSCMRFYS
-0.257

Let us now turn to KVGDQLQLRTSATV
0.459

What do we get for GMIGNTIGNECTIYLNDQYV ?
0.825

More entries:
Consider the sequence YDVGTPRIRDFLCAIDRGNH and give its measured amyloid nucleation score.
0.106

Ok, now FMYRDLYRFMYCVVCAQFFH
4.95

Proceed to ALWVKGMFGGTMTRGILFLC
-0.369

Subsequent entry: LGCNDSWEWDFVTPNGTFPF
-0.445

Could you do the same for DYGWKLMVKVDWFLNGHQ , please?
4.39

---

The sequences listed here are annotated with their amyloid nucleation score.
# MEASUREMENT_NOTES: amyloid nucleation score (Sup35N fusion, yeast selection) (log enrichment); library NNK2; higher = more nucleation; inactive = no reads after selection
Could you respond with only the numeric value?

Endpoint output: amyloid nucleation score of FFLWVGTYSVVPGLCVYMS . Value?
3.78

Further cases:
amyloid nucleation score lookup needed for FLVYWTMLVVYGYCVFGWIN , thanks.
-1.3

Here is the next sequence: VAHSVTGFQWHACSREMNFR
4.57

Let us now turn to FTIFNKLCCVNYWVCILCYR
5.14

---

# MEASUREMENT_NOTES: amyloid nucleation score (Sup35N fusion, yeast selection) (log enrichment); library NNK2; higher = more nucleation; inactive = no reads after selection
TEST_READOUT: amyloid nucleation score
// return just the number, without any unit appended

Answered cases to consult:
Please give the measured amyloid nucleation score for this substance: EDRNSAFAWSSH
3.54

Would you kindly repeat that for DYWLMEWMRYVHRLVGNCWY ?
-0.959

Another substance to look at: RMGFWSLGSSSYNWYKTCVL
0.043

More entries:
# get_value(readout='amyloid nucleation score', item= MSIEKCICLICSINMEVVGF )
6.82

Next record, please: QSKYVSDPSPPETR
1.48

---

# MEASUREMENT_NOTES: amyloid nucleation score (Sup35N fusion, yeast selection) (log enrichment); library NNK2; higher = more nucleation; inactive = no reads after selection
Rule: met for amyloid nucleation score not less than 0.8, not met for anything less.

Examples from the recorded data:
Form field: amyloid nucleation score at least 0.8? Entry: RTGGNILQYFYIVRAHSGWC
met

Try the substance FNYDIPPVVQGCHISAQLLP
not met

Now try CVHLLSVSGWDFQYYFQAFN .
met

---
Reported amyloid nucleation score reaches at least 0.8 for NTMTSHMFENNRSIVTYLDV ?
not met

Check RERVFIGNGWTRLSRARGQA too.
not met

And then NRVFVVND , what is it?
met

---

# MEASUREMENT_NOTES: amyloid nucleation score (Sup35N fusion, yeast selection) (log enrichment); library NNK1; higher = more nucleation; inactive = no reads after selection
TEST_READOUT: amyloid nucleation score
API note: the answer field is a bare number with no unit suffix.

Would you kindly share the measured amyloid nucleation score for VFNLMI ?
0.381

Another: ATSALGCVTHVIMSNILTMN
0.106

# repeat for TGNGRDVLHSSALKVPNRR
0.715

Next:
// lookup amyloid nucleation score for NDFLNSFLCPYYIIPDTGRI
-1.04

Now consider GKHGQDFNSYRRVWLKSYLC and answer again.
1.07

Further, for AGGQGRLSRKVYSTMWVESL ?
1.17

TVKSWKFNRFIGLKRSTESL , same question.
0.238

One more substance: IIFNYPNPIYLNAKEVMLYI
6.52

Then what about the substance LVLLQVVIYGHLQCSFYQMH ?
1.8

Also WLRMYLGINFSVRYCGRRVE ?
0.465

And then THMGWVMHYSYETTPHARPG , what is it?
3.84

What about this substance? SSGQLSNKYC
0.786

---

# MEASUREMENT_NOTES: amyloid nucleation score (Sup35N fusion, yeast selection) (log enrichment); library NNK2; higher = more nucleation; inactive = no reads after selection
Quick reference for amyloid nucleation score among some substances
// return just the number, without any unit appended

Quick one: amyloid nucleation score for TLHWSMR ?
8.36

***
What does the data say about its amyloid nucleation score? Entry: YFNFIPGANRHDVSHFYGSY
0.299

Then what about the substance VVELKELAYQGNGIVLIMED ?
-0.066

---

# MEASUREMENT_NOTES: amyloid nucleation score (Sup35N fusion, yeast selection) (log enrichment); library NNK3; higher = more nucleation; inactive = no reads after selection
TEST_READOUT: amyloid nucleation score

In the examples that follow, each entry is paired with its recorded amyloid nucleation score.
If you can, please state the reported amyloid nucleation score value of SLGSNEKYWERRVSSHNWTT .
inactive

Another substance to check: LDFANCFLVQCL
inactive

Next: YLGVSILVSSYYWVRVGTGR
inactive

Same question for YASFTK please.
inactive

What about KAARTSQGNARCVYVKGVSN ?
inactive

Repeat with TCLLMSPVFMVYFLLKTMNS
inactive

Also need SGFPMVSIFESSI , thanks.
inactive

What do you have for FVVGIFYSIQYIECSRVSSY ?
-0.106

# iterate: GACVKDSLVAGNSSMTSAGL
3.9

Try this substance too: SPRLYETRMLPLTMGCGGDD
inactive

***
For the substance SGIFKLNCHKVGLILQSPYR , what amyloid nucleation score is on record?
0.055

Also, TSSLDEGTFV please.
0.644

Follow-up item: ESDFRLYSCFDWNVVAMNYR
1.44

And what about the substance TCVIKGGCCGLN ?
-0.955

Data credit: the supplement of paper PMC12042874
